- Tested on: mouse models of ovalbumin-induced asthma
- experiment.description: Therapeutic effect in mouse model of asthma induced with ovalbumin (lung weight, total leukocytes in blood and BALF)
- Type: in vivo, C57BL/6 mice
- condition.parameters: 200 mg/kg oral once a day; % of body weight; vehicle control 0.780 ± 0.103, sham 0.694 ± 0.049
property.label: Changes on the lung weight, Relative (%)
One number for each entry, in %.

For orientation, consider the following solved cases.
CC(C)c1nc(-c2ccc(OCCCCCOc3ccc(C(=N)NO)cc3)cc2)c(CC2CCCC2)s1 [Example 47] : 0.706
Cc1sc(-c2cccnc2)nc1-c1ccc(OCCCCCOc2ccc(C(=N)NO)cc2)cc1 [Example 13] : 0.695
CC(C)c1sc(N2CCOCC2)nc1-c1ccc(OCCCCCOc2ccc(C(=N)NO)cc2)cc1 [Example 169] : 0.696
Cc1nc(-c2ccc(OCc3ccc(COc4ccc(C(=N)NO)cc4)cc3)cc2)c(C(C)C)s1 [Example 185] : 0.720
CCCN(CCC)c1nc(-c2ccc(OCCCCCOc3ccc(C(=N)NO)cc3)cc2)c(CC)s1 [Example 138] : 0.691

Input: Given CNc1nc(-c2ccc(OCCCCCOc3ccc(C(=N)NO)cc3)cc2)c(CCCl)s1 [Example 115] , respond with its Changes on the lung weight, Relative (%).
Output: 0.705

* * *

Answer each item with its documented Survival rates of the cells.
- Test system: cells
- experiment.description: Cytotoxicity test (MTT)
- Format: cell-based
- condition.parameters: ST2 cells, 10^−6M, 72 hrs, compared with the control group
One number for each entry, in %.

CCc1sc(NC)nc1-c1ccc(OCCCCCOc2ccc(C(=N)NO)cc2)cc1 : 27.8
N=C(NO)c1ccc(OCCCCCOc2ccc(-c3csc(C4CCCCC4)n3)cc2)cc1 : 46.2
CCS(=O)(=O)Nc1nc(-c2ccc(OCCCCCOc3ccc(C(=N)NO)cc3)cc2)c(C)s1 : 55.0
CCS(=O)(=O)N(C)c1nc(-c2ccc(OCCCCCOc3ccc(C(=N)NO)cc3)cc2)cs1 : 53.2
CCc1sc(N(C)Cc2ccccc2)nc1-c1ccc(OCCCCCOc2ccc(C(=N)NO)cc2)cc1 : 46.4
CNc1nc(-c2ccc(OCCCCCOc3ccc(C(=N)NO)cc3)cc2)c(C)s1 : 48.6

Could you now look at the following molecule, please?
Input: Quickly give me recorded Survival rates of the cells for `CCc1nc(-c2ccc(OCCCCCOc3ccc(C(=N)NO)cc3)cc2)c(C)s1`
Output: 33.1

* * *

Answer each item with its documented inhibition at 1 µM.
- Test system: osteoclast differentiation
- experiment.description: Inhibitory effects on osteoclast differentiation (co-culture of bone marrow cells with osteoblast, TRAP staining)
- Format: cell-based, mice
- condition.parameters: Mus musculus, Osteoclast, 168 h; 1 m; co-culture of bone marrow cells and osteoblast, 7 days, TRAP-positive osteoclasts versus controls; read-out: % inhibitory activity on osteoclastogenesis
One number for each entry, in %.

Use these answered entries as a reference point.
CCc1sc(N(C)CCN2CCOCC2)nc1-c1ccc(OCCCCCOc2ccc(C(=N)NO)cc2)cc1 [Example 131] : 69
CCCN(CCC)c1nc(-c2ccc(OCCCCCOc3ccc(C(=N)NO)cc3)cc2)c(C(C)C)s1 [Example 157] : 92.3
CCCCc1sc(N(C)C)nc1-c1ccc(OCCCCCOc2ccc(C(=N)NO)cc2)cc1 [Example 152] : 83.8

Turning now to a further molecule:
Input: Input CCCCc1sc(N(C)Cc2cccnc2)nc1-c1ccc(OCCCCCOc2ccc(C(=N)NO)cc2)cc1 [Example 145] , output reported inhibition at 1 µM.
Output: 96.2
